TGT: GST-TopBP1 (a.a. 1233–1522) (human, UniProt Q92547 1233-1522)
Sequence (Q92547 1233-1522): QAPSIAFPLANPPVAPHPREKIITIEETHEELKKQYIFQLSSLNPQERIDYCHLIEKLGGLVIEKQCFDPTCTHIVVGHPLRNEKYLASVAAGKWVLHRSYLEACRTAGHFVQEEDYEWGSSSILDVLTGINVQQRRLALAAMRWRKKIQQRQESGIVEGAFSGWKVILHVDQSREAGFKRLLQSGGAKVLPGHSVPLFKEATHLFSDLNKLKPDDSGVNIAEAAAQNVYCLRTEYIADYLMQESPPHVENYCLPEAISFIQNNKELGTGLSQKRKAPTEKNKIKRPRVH
ASSAY METHOD TEXT: SPR
pKd: −log10 of the molar value.
READOUT: pKd

Query: pKd; subject: RecQL4_N54 (domain or fragment, human) GSMERLRDVRERLQAWERAFRRQRGRRPSQDDVEAAPEETRALYREYRTLKRTTGQ ~4.15
